- System: NAD glycohydrolase activity of soluble protein fraction from Jurkat T lymphocytes
- assay-overview: Inhibition of NAD glycohydrolase (NADase) activity in the soluble fraction
- Type: biochemical, human
- applied-conditions: inhibitor 10 μM
property-name: Enzyme Activity (% of control), NAD glycohydrolase activity

Example entries begin here.
molecule	test-target	observed
NC(=O)c1ccc[n+](C2OC(COP(=O)(O)OP(=O)(O)OCC3OC(n4cnc5c(=O)[nH]cnc54)C(O)C3O)C(O)C2O)c1 (centres unmarked) [NHD, nicotinamide hypoxanthine dinucleotide]	NAD glycohydrolase activity of soluble protein fraction from Jurkat T lymphocytes	37.3 % of control
NC(=O)c1ccc[n+]([C@@H]2O[C@H](COP(=O)([O-])OP(=O)(O)OC[C@H]3O[C@@H](n4ccc5c(=O)[nH]cnc54)[C@H](O)[C@@H]3O)[C@@H](O)[C@H]2O)c1	NAD glycohydrolase activity of soluble protein fraction from Jurkat T lymphocytes	94 % of control
NC(=O)c1ccc[n+](C2OC(COP(=O)([O-])OP(=O)(O)OCC3OC(n4c(Br)nc5c(=O)[nH]cnc54)C(O)C3O)C(O)C2O)c1 (centres unmarked)	NAD glycohydrolase activity of soluble protein fraction from Jurkat T lymphocytes	55.5 % of control
NC(=O)c1cccnc1 [Nicotinamide, nicotinamide, reference compound]	NAD glycohydrolase activity of soluble protein fraction from Jurkat T lymphocytes	95.2 % of control

# evaluate next
[Q] Could you share which Enzyme Activity (% of control), NAD glycohydrolase activity value was measured for NC(=O)c1ccc[n+]([C@@H]2O[C@H](COP(=O)([O-])O)[C@@H](O)[C@H]2O)c1 [β-NMN, β-nicotinamide mononucleotide, reference compound] ?
[A] 81.3 % of control

====

- Tested on: P10 ADP-ribosyl cyclase from Jurkat T lymphocytes
- assay-overview: Inhibition of P10 (heavy membrane) ADP-ribosyl cyclase, cyclase activity
- Assay type: biochemical, human
- applied-conditions: inhibitor 100 μM; P10 fraction; 100 μM 1,N6-etheno-NAD substrate
property-name: Enzyme Activity (% of control), Cyclase activity

[Q] Could you share which Enzyme Activity (% of control), Cyclase activity value was measured for NC(=O)c1ccc[n+]([C@@H]2O[C@H](COP(=O)([O-])O)[C@@H](O)[C@H]2O)c1 [β-NMN, β-nicotinamide mononucleotide, reference compound] ?
[A] 93.4 % of control

[Q] Could you share which Enzyme Activity (% of control), Cyclase activity value was measured for NC(=O)c1ccc[n+](C2OC(COP(=O)(O)OP(=O)(O)OCC3OC(n4cnc5c(=O)[nH]cnc54)C(O)C3O)C(O)C2O)c1 (centres unmarked) [NHD, nicotinamide hypoxanthine dinucleotide] ?
[A] 11.26 % of control

[Q] Could you share which Enzyme Activity (% of control), Cyclase activity value was measured for NC(=O)c1ccc[n+]([C@@H]2O[C@H](COP(=O)([O-])OP(=O)(O)OC[C@H]3O[C@@H](n4ccc5c(=O)[nH]cnc54)[C@H](O)[C@@H]3O)[C@@H](O)[C@H]2O)c1 ?
[A] 82.1 % of control

[Q] Could you share which Enzyme Activity (% of control), Cyclase activity value was measured for NC(=O)c1ccc[n+](C2OC(COP(=O)([O-])OP(=O)(O)OCC3OC(n4c(Br)nc5c(=O)[nH]cnc54)C(O)C3O)C(O)C2O)c1 (centres unmarked) ?
[A] 14.3 % of control

[Q] Could you share which Enzyme Activity (% of control), Cyclase activity value was measured for NC(=O)c1cccnc1 [Nicotinamide, nicotinamide, reference compound] ?
[A] 43.3 % of control

====

- Test system: P10 ADP-ribosyl cyclase from Jurkat T lymphocytes
- assay-overview: Inhibition of P10 (heavy membrane) ADP-ribosyl cyclase, cyclase activity
- Format: biochemical, human
- applied-conditions: inhibitor 10 μM; P10 fraction; 100 μM 1,N6-etheno-NAD substrate
property-name: Enzyme Activity (% of control), Cyclase activity

Example entries begin here.
compound	observed
NC(=O)c1ccc[n+](C2OC(COP(=O)(O)OP(=O)(O)OCC3OC(n4cnc5c(=O)[nH]cnc54)C(O)C3O)C(O)C2O)c1 (centres unmarked) [NHD, nicotinamide hypoxanthine dinucleotide]	63.6 % of control
NC(=O)c1ccc[n+](C2OC(COP(=O)([O-])OP(=O)(O)OCC3OC(n4c(Br)nc5c(=O)[nH]cnc54)C(O)C3O)C(O)C2O)c1 (centres unmarked)	59.2 % of control
NC(=O)c1ccc[n+]([C@@H]2O[C@H](COP(=O)([O-])OP(=O)(O)OC[C@H]3O[C@@H](n4ccc5c(=O)[nH]cnc54)[C@H](O)[C@@H]3O)[C@@H](O)[C@H]2O)c1	97.9 % of control
NC(=O)c1cccnc1 [Nicotinamide, nicotinamide, reference compound]	94.0 % of control

[Q] Could you share which Enzyme Activity (% of control), Cyclase activity value was measured for NC(=O)c1ccc[n+]([C@@H]2O[C@H](COP(=O)([O-])O)[C@@H](O)[C@H]2O)c1 [β-NMN, β-nicotinamide mononucleotide, reference compound] ?
[A] 112.3 % of control

====

- Tested on: NAD glycohydrolase activity of soluble protein fraction from Jurkat T lymphocytes
- assay-overview: Inhibition of NAD glycohydrolase (NADase) activity in the soluble fraction
- Assay type: biochemical, human
- applied-conditions: inhibitor 100 μM
- Text: FIG. 1-a, b—Inhibition of intracellular, soluble ADP-ribosyl cyclase by 8-Br-NHD. […] The formation of 1,N^6-etheno-cADPR and 1,N^6-etheno-ADPR was continuously monitored by fluorimetry (exc. 300 nm, em. 410 nm). Finally, the precise amount of products 1,N^6-etheno-cADPR and 1,N^6-etheno-ADPR was quantified by HPLC (da Silva et al., 1998a) using a fluorescence detector. […]
Each entry below lists one item and its recorded Enzyme Activity (% of control), NAD glycohydrolase activity value.

Example entries begin here.
compound	observed
NC(=O)c1ccc[n+](C2OC(COP(=O)(O)OP(=O)(O)OCC3OC(n4cnc5c(=O)[nH]cnc54)C(O)C3O)C(O)C2O)c1 (centres unmarked) [NHD, nicotinamide hypoxanthine dinucleotide]	13.5 % of control
NC(=O)c1ccc[n+]([C@@H]2O[C@H](COP(=O)([O-])OP(=O)(O)OC[C@H]3O[C@@H](n4ccc5c(=O)[nH]cnc54)[C@H](O)[C@@H]3O)[C@@H](O)[C@H]2O)c1 [7-deaza-NHD]	80.5 % of control
NC(=O)c1cccnc1 [Nicotinamide, nicotinamide, reference compound]	29.6 % of control
NC(=O)c1ccc[n+](C2OC(COP(=O)([O-])OP(=O)(O)OCC3OC(n4c(Br)nc5c(=O)[nH]cnc54)C(O)C3O)C(O)C2O)c1 (centres unmarked) [8-Br-NHD]	3.3 % of control

[Q] Could you share which Enzyme Activity (% of control), NAD glycohydrolase activity value was measured for NC(=O)c1ccc[n+]([C@@H]2O[C@H](COP(=O)([O-])O)[C@@H](O)[C@H]2O)c1 [β-NMN, β-nicotinamide mononucleotide, reference compound] ?
[A] 59.4 % of control

====

- System: NAD glycohydrolase activity of P10 membranes from Jurkat T lymphocytes
- assay-overview: Inhibition of NAD glycohydrolase (NADase) activity in the P10 fraction
- Type: biochemical, human
- applied-conditions: inhibitor 10 μM; P10 fraction
Each entry below lists one item and its recorded Enzyme Activity (% of control), NAD glycohydrolase activity value.

compound	observed
NC(=O)c1cccnc1 [Nicotinamide, nicotinamide, reference compound]	94.2 % of control

[Q] Give NAD glycohydrolase activity of P10 membranes from Jurkat T lymphocytes Enzyme Activity (% of control), NAD glycohydrolase activity for NC(=O)c1ccc[n+](C2OC(COP(=O)([O-])OP(=O)(O)OCC3OC(n4c(Br)nc5c(=O)[nH]cnc54)C(O)C3O)C(O)C2O)c1 (centres unmarked)
[A] 60.8 % of control

[Q] Give NAD glycohydrolase activity of P10 membranes from Jurkat T lymphocytes Enzyme Activity (% of control), NAD glycohydrolase activity for NC(=O)c1ccc[n+]([C@@H]2O[C@H](COP(=O)([O-])OP(=O)(O)OC[C@H]3O[C@@H](n4ccc5c(=O)[nH]cnc54)[C@H](O)[C@@H]3O)[C@@H](O)[C@H]2O)c1
[A] 97.5 % of control

[Q] Give NAD glycohydrolase activity of P10 membranes from Jurkat T lymphocytes Enzyme Activity (% of control), NAD glycohydrolase activity for NC(=O)c1ccc[n+]([C@@H]2O[C@H](COP(=O)([O-])O)[C@@H](O)[C@H]2O)c1 [β-NMN, β-nicotinamide mononucleotide, reference compound]
[A] 115.0 % of control

[Q] Give NAD glycohydrolase activity of P10 membranes from Jurkat T lymphocytes Enzyme Activity (% of control), NAD glycohydrolase activity for NC(=O)c1ccc[n+](C2OC(COP(=O)(O)OP(=O)(O)OCC3OC(n4cnc5c(=O)[nH]cnc54)C(O)C3O)C(O)C2O)c1 (centres unmarked) [NHD, nicotinamide hypoxanthine dinucleotide]
[A] 59.0 % of control

====

- Test system: NAD glycohydrolase activity of P10 membranes from Jurkat T lymphocytes
- assay-overview: Inhibition of NAD glycohydrolase (NADase) activity in the P10 fraction
- Type: biochemical, human
- applied-conditions: inhibitor 100 μM; P10 fraction
property-name: Enzyme Activity (% of control), NAD glycohydrolase activity

Example entries begin here.
compound	observed
NC(=O)c1ccc[n+]([C@@H]2O[C@H](COP(=O)([O-])O)[C@@H](O)[C@H]2O)c1 [β-NMN, β-nicotinamide mononucleotide, reference compound]	91.9 % of control
NC(=O)c1ccc[n+]([C@@H]2O[C@H](COP(=O)([O-])OP(=O)(O)OC[C@H]3O[C@@H](n4ccc5c(=O)[nH]cnc54)[C@H](O)[C@@H]3O)[C@@H](O)[C@H]2O)c1	83.3 % of control

# evaluate next
[Q] Could you share which Enzyme Activity (% of control), NAD glycohydrolase activity value was measured for NC(=O)c1cccnc1 [Nicotinamide, nicotinamide, reference compound] ?
[A] 42.6 % of control
